# TARGET_OF_ASSAY: T1, SUDV VLP (Sudan virus (SUDV), UniProt Q66814 33-676)
# T1 sequence: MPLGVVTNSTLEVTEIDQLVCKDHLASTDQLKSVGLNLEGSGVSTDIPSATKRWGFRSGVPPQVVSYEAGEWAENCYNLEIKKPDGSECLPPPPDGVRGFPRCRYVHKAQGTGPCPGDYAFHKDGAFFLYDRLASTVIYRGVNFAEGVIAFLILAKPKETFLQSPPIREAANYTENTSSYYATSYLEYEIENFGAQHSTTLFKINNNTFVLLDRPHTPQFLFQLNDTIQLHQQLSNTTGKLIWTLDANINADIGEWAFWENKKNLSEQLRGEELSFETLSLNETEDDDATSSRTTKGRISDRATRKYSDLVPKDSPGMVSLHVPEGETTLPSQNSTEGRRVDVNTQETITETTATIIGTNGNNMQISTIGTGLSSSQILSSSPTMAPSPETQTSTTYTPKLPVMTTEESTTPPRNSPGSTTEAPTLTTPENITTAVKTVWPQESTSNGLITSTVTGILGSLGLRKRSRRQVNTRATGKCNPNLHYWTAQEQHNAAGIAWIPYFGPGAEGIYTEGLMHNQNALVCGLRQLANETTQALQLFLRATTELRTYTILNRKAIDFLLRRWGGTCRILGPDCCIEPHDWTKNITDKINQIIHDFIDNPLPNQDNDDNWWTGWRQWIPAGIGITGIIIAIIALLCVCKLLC
# ASSAY_EXPLANATION: ELISA
pEC50: −log10 of the molar value.
Returns Met if the recorded pEC50 is greater than or equal to 10, and Not met otherwise.

BINDER: FVM23 (antibody, V domains shown) VH: QVQLVQSGAEVKRPGESLTISCKTSGYSFTGSWISWVRQMPGKGLEWMGSIYPGDSDTTYNPSFQGHVTISADKSISTAYLQWTSLKASDTATYYCVKGSETWGQGVLVTVSS VL: SYELTQPASLSASPGASASLTCTFSGGINVAGYNILWYQQKAGSPPRYLLRYKSDSTKDQGSGVPSRFSGSKDASANTGILRISGLQSEDEADYYCAIGHSSGLIFGAGTRLTVL
CATEGORY: Not met
--
BINDER: FVM28 (antibody, V domains shown) VH: EVQLVQSGAEVKRPGESLKISCQTSGYRFTSSWISWVRQMPGKGLEWMGAIDPSDSETRYSPSFQGQVTISADKSISTAYLKWSSLKASDTATYYCVKGSETWGQGVLVTVSS VL: QAALTQPASLSASPGASASLTCTFSGGINVAGYHILWYQQKPGSPPRYLLRYKSDSEKDQGSGVPSRFSGSKDASANRGILRISGLQSEDEADYYCAIGHSSSGWVFGGGTRLTVL
CATEGORY: Not met
--
BINDER: FVM41 (antibody, V domains shown) VH: EVQLVQSGAEVKRPGESLKISCKTSGYSFTDTWISWVRQMPGKGLEWMGSIYPGDSETKYNPSFQGHVTISADKSVTTTYLKWSSLKASDTATYYCVKGSETWGQGVLVTVSS VL: ETVVTQPASLSASPGASASLTCTFSGGINVAGYNILWYQQKAGSPPRYLLRYKSDSTKDQGSGVPSRFSGSKDASANTGILRISGLQSEDEADYYCAIGHSSGVLFGGGTRLTVL
CATEGORY: Not met
--
BINDER: FVM34 (antibody, V domains shown) VH: EVQLVESGAEVKRPGESLTISCKTSGYSFTDSWVSWVRQMPGKGLEWMGSIYPGDSETKYNPSFQGHVTISADKSVTTTYLKWSSLKASDTATYYCVKGSETWGQGVLVTVSS VL: QPVLTQPASLSASPGASASLTCTFSGGINVAGYYIHWYQQKPGSPPRYLLRYKSDSDKHQGSGVPSRFSGSKDASANTGILRISGLQSEDEADYYCAIGHSSGWVFGGGTRLTVL
CATEGORY: Not met
--
BINDER: FVM39 (antibody, V domains shown) VH: EVQLVQSGAEVKRPGESLRISCKTSGYSFTDSWISWVRQMPGKGLEWLGSIYPGDSETKYNPSFQGHVTISADKSVTTTYLKWSSLKASDTATYYCVKGSETWGQGVLVTVSS VL: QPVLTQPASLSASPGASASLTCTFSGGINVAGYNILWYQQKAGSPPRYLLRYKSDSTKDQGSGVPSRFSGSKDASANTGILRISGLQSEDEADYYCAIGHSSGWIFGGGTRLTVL
CATEGORY: Met
